Provide the reported pIC50 of each item.
Target: EGFR (Homo sapiens, UniProt P00533)
Construct: Kinases are expressed as either kinase domains or full length constructs; made in house
Sequence (P00533 25-1210, species assumed): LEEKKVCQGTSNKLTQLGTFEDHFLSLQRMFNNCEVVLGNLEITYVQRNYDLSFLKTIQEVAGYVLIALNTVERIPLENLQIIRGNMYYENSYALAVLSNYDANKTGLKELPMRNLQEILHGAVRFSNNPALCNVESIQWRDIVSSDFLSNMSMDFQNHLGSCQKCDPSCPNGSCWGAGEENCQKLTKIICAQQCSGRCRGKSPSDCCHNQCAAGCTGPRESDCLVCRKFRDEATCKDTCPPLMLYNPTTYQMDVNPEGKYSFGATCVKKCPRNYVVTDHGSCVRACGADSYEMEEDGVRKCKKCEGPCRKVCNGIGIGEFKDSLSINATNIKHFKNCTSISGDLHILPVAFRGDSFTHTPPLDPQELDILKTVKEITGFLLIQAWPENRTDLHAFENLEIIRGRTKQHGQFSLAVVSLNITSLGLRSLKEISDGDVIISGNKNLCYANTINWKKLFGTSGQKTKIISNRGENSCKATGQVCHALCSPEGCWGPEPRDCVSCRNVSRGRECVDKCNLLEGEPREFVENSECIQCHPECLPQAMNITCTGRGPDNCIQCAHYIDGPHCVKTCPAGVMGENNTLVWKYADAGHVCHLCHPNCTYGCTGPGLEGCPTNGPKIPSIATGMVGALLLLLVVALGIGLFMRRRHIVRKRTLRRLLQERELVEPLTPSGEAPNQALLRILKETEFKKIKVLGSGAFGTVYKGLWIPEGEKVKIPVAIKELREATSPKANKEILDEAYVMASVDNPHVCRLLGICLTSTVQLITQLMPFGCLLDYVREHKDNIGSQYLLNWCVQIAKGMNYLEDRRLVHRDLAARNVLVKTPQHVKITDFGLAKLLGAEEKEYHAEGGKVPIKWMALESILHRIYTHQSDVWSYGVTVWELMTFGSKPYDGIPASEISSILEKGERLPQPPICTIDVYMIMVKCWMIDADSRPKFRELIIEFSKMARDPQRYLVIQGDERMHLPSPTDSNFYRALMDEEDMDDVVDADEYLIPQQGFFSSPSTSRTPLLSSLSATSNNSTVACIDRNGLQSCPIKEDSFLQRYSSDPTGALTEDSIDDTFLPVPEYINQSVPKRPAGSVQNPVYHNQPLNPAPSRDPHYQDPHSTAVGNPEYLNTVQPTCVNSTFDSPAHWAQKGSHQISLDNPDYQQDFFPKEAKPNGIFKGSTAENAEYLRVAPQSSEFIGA
Test: Kinase inhibition assay (33P transfer), EGFR
Format: biochemical
Conditions: Table 2, kinase inhibition class; read-out: EGFR-1
Method: The inhibitor compounds described herein are screened in the following manner. […] Kinases are expressed as either kinase domains or full length constructs fused to glutathione S-transferase (GST) or polyHistidine tagged fusion proteins in either E. colior Baculovirus-High Five expression systems. […] Kinase activity and inhibition are measured essentially by established protocols (Braunwalder et al., 1996). […]
pIC50: −log10 of the molar value.

// below: answered compounds
COc1cc(Nc2ncnc(-n3c(NCc4ccccc4F)nc4ccccc43)n2)cc(OC)c1OC [Compound 512]; < 5.05
COc1cc(Nc2ncnc(-n3cccc3)n2)cc(OC)c1OC [Compound 182]; < 4.86
CC(=O)N1CCc2cc(Nc3ncnc(N4CCCc5cc(C)ccc54)n3)ccc21 [Compound 764]; > 6.00
CN(c1ccc(F)c(Cl)c1)c1ncnc(Nc2cccc(Br)c2)n1 [Compound 713]; < 4.96
Nc1ncnc(Nc2nc(-c3ccccc3)cs2)n1 [Compound 1020]; < 4.78
COc1cc(Nc2ncnc(-n3c(N)nc4ccccc43)n2)ccc1OCCn1ccnn1 [Compound 324]; < 4.99
COc1cc(Nc2ncnc(-n3ccc4cc(O)ccc43)n2)cc(OC)c1OC [Compound 202]; < 4.94
COc1cc(Nc2ncnc(Nc3cc(C(C)(C)C)[nH]n3)n2)cc(OC)c1OC [Compound 313]; 5.22 to 6.00

Lab note: measured pIC50 of COc1cc(Nc2ncnc(Nc3c(C)n(C)n(-c4ccccc4)c3=O)n2)cc(OC)c1OC [Compound 256] was < 5.01

* * *

Target: Kdr (Homo sapiens, UniProt P35968)
Construct: Kinases are expressed as either kinase domains or full length constructs; made in house
Sequence (P35968 20-1356, species assumed): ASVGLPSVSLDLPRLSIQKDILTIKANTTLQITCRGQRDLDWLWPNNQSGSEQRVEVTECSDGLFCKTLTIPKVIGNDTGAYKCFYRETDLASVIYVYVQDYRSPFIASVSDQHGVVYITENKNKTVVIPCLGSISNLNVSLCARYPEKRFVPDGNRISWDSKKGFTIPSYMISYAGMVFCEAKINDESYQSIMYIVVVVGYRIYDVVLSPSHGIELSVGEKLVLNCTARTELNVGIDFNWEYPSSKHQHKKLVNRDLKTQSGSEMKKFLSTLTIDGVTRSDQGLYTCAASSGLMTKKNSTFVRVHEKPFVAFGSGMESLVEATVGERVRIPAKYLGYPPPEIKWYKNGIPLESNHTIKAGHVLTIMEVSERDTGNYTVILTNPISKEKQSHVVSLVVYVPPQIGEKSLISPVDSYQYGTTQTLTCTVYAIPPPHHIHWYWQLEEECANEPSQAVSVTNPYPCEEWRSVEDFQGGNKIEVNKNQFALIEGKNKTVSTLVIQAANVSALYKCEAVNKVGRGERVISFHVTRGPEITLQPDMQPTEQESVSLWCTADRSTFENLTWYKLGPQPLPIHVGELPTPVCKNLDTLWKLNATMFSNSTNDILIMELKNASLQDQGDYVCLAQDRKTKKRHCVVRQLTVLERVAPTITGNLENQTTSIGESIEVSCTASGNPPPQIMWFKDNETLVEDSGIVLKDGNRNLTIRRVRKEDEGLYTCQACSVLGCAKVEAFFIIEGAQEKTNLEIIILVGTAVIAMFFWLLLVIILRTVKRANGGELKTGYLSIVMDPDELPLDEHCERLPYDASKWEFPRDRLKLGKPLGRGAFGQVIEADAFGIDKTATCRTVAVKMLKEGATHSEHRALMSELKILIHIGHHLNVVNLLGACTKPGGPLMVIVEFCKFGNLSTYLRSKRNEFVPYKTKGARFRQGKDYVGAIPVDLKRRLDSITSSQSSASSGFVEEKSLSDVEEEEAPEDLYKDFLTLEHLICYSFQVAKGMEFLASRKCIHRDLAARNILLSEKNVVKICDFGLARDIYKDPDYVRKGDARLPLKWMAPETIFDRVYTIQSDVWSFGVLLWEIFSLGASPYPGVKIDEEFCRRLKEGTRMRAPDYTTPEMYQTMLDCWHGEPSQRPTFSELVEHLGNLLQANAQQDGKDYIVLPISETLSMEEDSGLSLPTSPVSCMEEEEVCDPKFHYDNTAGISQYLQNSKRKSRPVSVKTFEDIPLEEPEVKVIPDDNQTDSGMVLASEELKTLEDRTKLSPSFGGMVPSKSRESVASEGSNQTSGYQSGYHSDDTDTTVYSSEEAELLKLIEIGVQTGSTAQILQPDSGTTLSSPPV
Experiment: Kinase inhibition assay (33P transfer), Kdr
Format: biochemical
Settings: Table 3; read-out: KDR-1
pIC50: −log10 of the molar value.
Give measured pIC50 for each item. Keep answers brief.

COc1cc(Nc2ncnc(-n3c(NCc4cccnc4)nc4ccccc43)n2)cc(OC)c1OC [Compound 416]; > 6.08
COc1cc(Nc2ncnc(Nc3ccc(F)c(Cl)c3)n2)cc(OC)c1OC [Compound 61]; > 6.01
Oc1ccc(Nc2ncnc(-c3ccccc3)n2)cc1 [Compound 11]; 5.04 to 5.82
O=c1[nH]c2ccccc2n1-c1ncnc(Nc2cccc([N+](=O)[O-])c2)n1 [Compound 467]; 5.16 to 5.94
COc1cc(Nc2ncnc(N3CCN(C(=O)OC(C)(C)C)CC3)n2)cc(OC)c1OC [Compound 211]; 5.11 to 5.27
COc1cc(C)c(Nc2ncnc(-c3cccs3)n2)cc1OC [Compound 359]; < 4.86
COC(=O)c1cccc(Nc2nc3ccccc3n2-c2ncnc(Nc3cc(OC)c(OC)c(OC)c3)n2)c1 [Compound 383]; 5.34 to 6.12
COc1cc(Nc2ncnc(Nc3cc(Cl)c(O)c(Cl)c3)n2)cc(OC)c1OC [Compound 68]; > 6.04

The compound listed as COc1cc(Nc2ncnc(Nc3cccc(C)c3)n2)cc(OC)c1OC [Compound 64] shows pIC50 equal to 5.18 to 5.96

* * *

Target: EGFR (Homo sapiens)
Construct: Kinases are expressed as either kinase domains or full length constructs; made in house
Test: Kinase inhibition assay (33P transfer), EGFR
Type: biochemical
Settings: Table 2, class symbols A-E; read-out: EGFR-1
Value Type: IC50

Go through the items and report each one's IC50.
1. COc1cc(C)c(Nc2ncnc(Nc3cc(-c4ccc(Cl)cc4)n[nH]3)n2)cc1OC
2. COC(=O)c1cccc(Nc2ncnc(-n3c(NCc4ccc(OC)cc4)nc4ccccc43)n2)c1
3. COc1cc(Nc2ncnc(-c3cccnc3Nc3ccc(C(C)=O)cc3)n2)cc(OC)c1OC

Given back:
["7.99 to 10.3 µM", "> 9.35 µM", "> 9.52 µM"]
